- testTarget: Melanocortin MC5 (Homo sapiens, UniProt P33032)
- Sequence (P33032 whole entry): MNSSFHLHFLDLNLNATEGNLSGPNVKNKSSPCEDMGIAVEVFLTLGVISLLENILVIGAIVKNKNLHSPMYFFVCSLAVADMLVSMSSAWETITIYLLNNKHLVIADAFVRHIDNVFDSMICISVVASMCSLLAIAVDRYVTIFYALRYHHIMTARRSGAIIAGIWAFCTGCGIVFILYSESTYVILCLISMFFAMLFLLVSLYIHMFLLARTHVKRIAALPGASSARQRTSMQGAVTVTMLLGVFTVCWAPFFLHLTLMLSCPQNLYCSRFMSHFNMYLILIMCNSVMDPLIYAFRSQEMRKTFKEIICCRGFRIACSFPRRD

{"compound": "CCCc1c(SCCCOc2ccc(C(C)O)c(OCCCC(=O)O)c2CCC)ccc(C(C)=O)c1O (centres unmarked) [Compound 2]", "IC50 (nM)": 1820}
{"compound": "CCCc1c(SCCCOc2ccc(C(C)=O)c(OCCCC(=O)O)c2CCC)ccc(C(C)=O)c1O [Compound 1]", "IC50 (nM)": 2580}

====

- testTarget: LTD4 (Cavia porcellus, UniProt Q2NNR5)
- Sequence (Q2NNR5 1-340): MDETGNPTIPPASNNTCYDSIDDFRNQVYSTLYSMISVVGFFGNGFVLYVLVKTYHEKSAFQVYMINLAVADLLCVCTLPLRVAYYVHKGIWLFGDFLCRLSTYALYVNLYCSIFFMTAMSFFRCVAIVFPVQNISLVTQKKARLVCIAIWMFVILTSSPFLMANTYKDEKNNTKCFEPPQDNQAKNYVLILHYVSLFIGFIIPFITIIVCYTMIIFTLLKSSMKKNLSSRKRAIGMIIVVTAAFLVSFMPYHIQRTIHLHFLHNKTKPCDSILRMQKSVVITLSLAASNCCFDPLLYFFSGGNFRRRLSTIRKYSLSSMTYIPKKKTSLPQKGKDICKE
- assaySummary: Biochemical assay LTD4
- Type: binding
- particulars: LTD4, Gp
pIC50: −log10 of the molar value.

{"compound": "CCCc1c(SCCCOc2ccc(C(C)O)c(OCCCC(=O)O)c2CCC)ccc(C(C)=O)c1O (stereo not shown) [Compound 2]", "pIC50": 5.27}
